// data source = patent US10174016B2

experiment: In vitro metabolic stability in liver microsomes (calculation of CL and Fmax); assay type: in vitro ADME, human; conditions: 1 μM, 0.5 mg/mL protein, maximal oral bioavailability calculated from half-life
resultType: Human liver microsome Fmax (%)

CCc1cnc(-c2cc(OC[C@H]3CN(C)CCO3)cc(C(=O)N[C@H](C)c3ccc(C(F)(F)F)nn3)c2)s1 [Example 419]	74
Cc1cnc(-c2cc(OC(C)C(C)O)cc(C(=O)N[C@H](C)c3cnc(C(F)(F)F)nc3)c2)s1 (single isomer, unassigned) [Example 340]	90
Cc1cnc(-c2cc(O[C@H]3CCOC3)cc(C(=O)N[C@H](C)c3cnc(C(F)(F)F)nc3)c2)s1 [Example 26]	67
